Test: chemical genetic growth profiling, strain panel (AID 1159580);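 note: tested at 20 µM; growth read once vehicle control cultures reached saturation at 30 °C; 1 = growth at the plate median or of vehicle wells; lower values mean less growth of the strain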
Conditions: S. cerevisiae deletion strains, growth OD, locus YKR026C, strain gcn3, active compounds read low
In all, about 5,500 compounds went through this assay and about 2,000 (36%) were called active. Not shown: some 18% with an inconclusive outcome. This is one part of the list.

{"compound": "O=C(O)C1(O)C[C@@H](O)C(O)[C@H](O)C1 (stereo partly drawn)", "normalized growth": 0.986}
{"compound": "CN1CCC(=C2c3ccccc3CC(=O)c3sccc32)CC1", "normalized growth": 0.981}
{"compound": "CC(=O)O[C@@H]1C[C@@]2(C)C(CC[C@@H]2C(C)=O)C2CCC3=CC(=O)CC[C@]3(C)C21 (stereo partly drawn)", "normalized growth": 1.01}
